test system: HCT-116; assay: NCI tumour cell line growth inhibition, 48 h
Active and inactive are the calls of the source. Rule as the data show it: active = GI50 up to about 1.1 µM and inactive = higher.
Possible outcomes: active, inactive

compound="O=C1OCOC2(CCCC2)C1c1ccccc1 (stereo unspecified)" qualitative_label=inactive
compound=COc1cc2c(oc(=O)c3c4oc([Si](C)(C)C)cc4cc(OC)c23)c2cccc(OCc3ccccc3)c12 qualitative_label=inactive
compound=CC(C)OP(=O)(OC(C)C)/C(N)=N/Nc1ccc([N+](=O)[O-])cc1 qualitative_label=inactive
compound=Cn1c(N2CCCC2)c(C=O)c(=O)n(C)c1=O qualitative_label=inactive
compound="CC1(C)OCC2OC(n3cnc4c(N)nc(Cl)nc43)C(OS(C)(=O)=O)C2O1 (stereo unspecified)" qualitative_label=inactive
compound="C/C(=C\\CC[C@]1(C)OC(C)(C)OC1CC/C(C)=C/CO[Si](c1ccccc1)(c1ccccc1)C(C)(C)C)CC/C=C/CO[Si](C)(C)C(C)(C)C (stereo partly specified)" qualitative_label=inactive
compound=COc1ccc(/C=C/c2ccnc3ccccc23)c(OC)c1 qualitative_label=inactive
compound=COC(=O)C1=C(C(=O)OC)SC(=C2SC3=C(SC(=C4SCCS4)S3)S2)S1 qualitative_label=inactive
compound=O=S(=O)(O)c1cc(/N=N/c2c(O)ccc3ccccc23)c2c(S(=O)(=O)O)cccc2c1 qualitative_label=inactive
compound=CCCCC(=O)OC[n+]1ccc2c(C)c3[nH]c4ccc(OC)cc4c3c(C)c2c1 qualitative_label=active
compound=N=C(N)N/N=C/c1c(-c2ccc(N)cc2)nc2sccn12 qualitative_label=inactive
compound="OC1(c2ccc(-c3ccccc3)cc2)c2ccccc2C2=NCCN21 (stereo unspecified)" qualitative_label=inactive
compound=Cc1nn2c(C(=O)N/N=C/c3ccccc3O)c(C)nc2s1 qualitative_label=inactive
compound=O=C1C[C@@H](c2ccc(O)cc2)[C@@]2(O1)C(=O)O[C@H]([C@@H](O)CO)[C@@H]2O qualitative_label=inactive
compound=Cc1ccc(S(=O)(=O)N/N=C/C(C)C)cc1 qualitative_label=inactive
compound=O=C1C(NS(=O)(=O)c2ccccc2)=C(N(Cc2ccccc2)Cc2ccccc2)C(=O)c2ccccc21 qualitative_label=inactive
compound=CC(=O)OCCOCn1cc(C=O)c2ccccc21 qualitative_label=inactive
compound=Cc1ccc(-c2ccc3c(c2)Sc2ccccc2O3)n1C qualitative_label=active
compound="CC1=CC(=O)C(=O)C2=C1OC1(C2)C(C)CCC2C3(C)CCC(O)C(C)(C)C3CCC21C (stereo unspecified)" qualitative_label=inactive
compound="CC(=O)OC1CC2C(=O)C(=O)C1(C)C2(C)C (stereo unspecified)" qualitative_label=inactive
compound=Nc1ccc2c(O)cc(O)nc2n1 qualitative_label=inactive

* * *

Below, each of the compounds is paired with its reported GI50 value.
system: T47D; assay: NCI tumour cell line growth inhibition, 48 h
Calls of active or inactive are those of the source. Rule as the data show it: active = GI50 up to about 1.1 µM and inactive = higher.
property.measured: GI50

sample_smiles=Cc1cc2sc(C)[n+](CCCOS(=O)(=O)[O-])c2cc1C tested_system=T47D property_measured=GI50 result="58.6 µM (inactive)"
sample_smiles=Cc1nn2c(C(=O)N/N=C/c3ccccc3O)c(C)nc2s1 tested_system=T47D property_measured=GI50 result="61.5 µM (inactive)"
sample_smiles=Cc1nc2ccc(Cl)cc2c2c1CCS2 tested_system=T47D property_measured=GI50 result="> 100 µM (inactive)"
sample_smiles=O=C(NCCNCCNCCNC(=O)c1cc(-c2ccccc2)nc2ccccc12)c1cc(-c2ccccc2)nc2ccccc12 tested_system=T47D property_measured=GI50 result="2.68 µM (inactive)"
sample_smiles=Cc1[nH]c(-c2ccccc2)c2nc(N(C)C)oc(=O)c12 tested_system=T47D property_measured=GI50 result="> 100 µM (inactive)"
sample_smiles=CCN1CN(c2ccccc2)C2(CCN(CCCSc3ccc(F)cc3)CC2)C1=O tested_system=T47D property_measured=GI50 result="3.26 µM (inactive)"
